Source: ChEMBL document CHEMBL3044843

system: THP-1; assay: Growth inhibition of Homo sapiens (human) THP1 cells at 10 uM by SRB assay; format: functional; settings: read-out: GI
Attribute Measured: inhibition of growth at 10 µM
The reply must contain the numeric value and, after it, the unit.

Would you please look over these solved cases?
Query: # query: inhibition of growth at 10 µM | item COc1cc(C2CC(c3ccccc3)=NN2C(C)=O)ccc1OCc1cn(Cc2ccc([N+](=O)[O-])cc2)nn1 (stereo unspecified) | system: THP-1
Reply: 0%

Query: Recorded inhibition of growth at 10 µM for CC(=O)O[C@H]1C(=O)[C@@]2(C)[C@H]([C@H](OC(=O)c3ccccc3)[C@]3(O)C[C@H](OC(=O)[C@H](O)[C@@H](NC(=O)c4ccccc4)c4ccccc4)C(C)=C1C3(C)C)[C@]1(OC(C)=O)CO[C@@H]1C[C@@H]2O with THP-1, please?
Reply: 62%

Query: Enter reported inhibition of growth at 10 µM observed with THP-1 for CO[C@@]12[C@H](COC(N)=O)C3=C(C(=O)C(C)=C(N)C3=O)N1C[C@@H]1N[C@@H]12
Reply: 65%

Query: Look up inhibition of growth at 10 µM with THP-1 for this compound: COc1cc(C2CC(c3ccc(Br)cc3)=NN2C(C)=O)ccc1OCc1cn(Cc2ccc([N+](=O)[O-])cc2)nn1 (stereo unspecified)
Reply: 1%

Query: Look up inhibition of growth at 10 µM with THP-1 for this compound: COc1cc(C2CC(c3cccc4ccccc34)=NN2C(C)=O)ccc1OCc1cn(Cc2ccc([N+](=O)[O-])cc2)nn1 (stereo unspecified)
Reply: 10%

We now examine a further compound.
Query: Item: COc1cc(C2CC(c3ccc(Cl)cc3)=NN2C(C)=O)ccc1OCc1cn(Cc2ccc([N+](=O)[O-])cc2)nn1 (stereo unspecified) Test system: THP-1 Read-out: inhibition of growth at 10 µM Value: ?
Reply: 17%

###

test system: THP-1; assay: Growth inhibition of Homo sapiens (human) THP1 cells at 10 uM by SRB assay; assay type: functional; settings: read-out: GI
Attribute Measured: inhibition of growth at 10 µM (%)
Form entry: value (%) — number only.

Query: Fill in: inhibition of growth at 10 µM of COc1ccc(C2CC(c3ccc(OCc4cn(Cc5ccc([N+](=O)[O-])cc5)nn4)cc3)=NN2C(C)=O)cc1OC (centres undefined) is ___
Reply: 8

Query: GET /values?readout=inhibition of growth at 10 µM&item= CC(=O)N1N=C(c2ccc(OCc3cn(Cc4ccc([N+](=O)[O-])cc4)nn3)cc2)CC1c1ccccc1 (centres undefined)
Reply: 0

Others:
Query: // lookup inhibition of growth at 10 µM for COc1ccc(C2CC(c3ccc(OCc4cn(Cc5ccc([N+](=O)[O-])cc5)nn4)cc3)=NN2C(C)=O)cc1 (centres undefined)
Reply: 15

Query: Given the entry COc1cc(C2CC(c3cc(OC)c(OC)c(OC)c3)=NN2C(C)=O)ccc1OCc1cn(Cc2ccc([N+](=O)[O-])cc2)nn1 (centres undefined) , report its measured inhibition of growth at 10 µM.
Reply: 29

###

test system: THP-1; assay: Growth inhibition of Homo sapiens (human) THP1 cells at 10 uM by SRB assay; assay type: functional; details: read-out: GI
Attribute Measured: inhibition of growth at 10 µM (%)
// units = %; emit number, no label

Example entries and their recorded answers appear below.
Query: Dear colleague, I am looking for the recorded inhibition of growth at 10 µM of the following compound: COc1cc(C2CC(c3ccc(OCc4cn(Cc5ccc([N+](=O)[O-])cc5)nn4)cc3)=NN2C(C)=O)ccc1OCc1cn(Cc2ccc([N+](=O)[O-])cc2)nn1 (stereo not drawn)
Reply: 0

Query: Return reported inhibition of growth at 10 µM; argument: COc1ccc(C2=NN(C(C)=O)C(c3ccc(OCc4cn(Cc5ccc([N+](=O)[O-])cc5)nn4)c(OC)c3)C2)cc1 (stereo not drawn)
Reply: 8

---
Query: What inhibition of growth at 10 µM value was documented for this compound, COc1cc(C2CC(c3ccc([N+](=O)[O-])cc3)=NN2C(C)=O)ccc1OCc1cn(Cc2ccc([N+](=O)[O-])cc2)nn1 (stereo not drawn) ?
Reply: 7
